- Tested on: Perkinsus marinus PRA240
- assay_method_text: ATP content (proliferation) relative to DMSO control; higher = more parasite growth (less inhibition)
- measurement_setup: 20 µM; 4 days
metric: ATP content (%)
Unit % implied. Number only.

The cases that follow already have their ATP content on record.
| compound | data_value |
| --- | --- |
| O=C(NCC1Cc2cccc(-c3ccncc3)c2O1)c1csc2c1CCCC2 (configuration not stated) | 114 |
| COc1ccc2nc(N)nc(C)c2c1 | 88 |
| OC(Cn1nnc2ccccc21)Cn1c2ccc(Br)cc2c2cc(Br)ccc21 (configuration not stated) | 135 |
| O=C(Nc1ccc(Cl)cc1)N1CCN(c2ccc3nncn3n2)CC1 | 124 |
| CC(C)(C)CC(C)(C)NCC(O)COc1ccc(Cl)cc1Cl (configuration not stated) | 123 |

Notebook entry, Perkinsus marinus PRA240 assay: ATP content of "CCOc1ccc(-c2nc(NC(=O)c3cccc(S(C)(=O)=O)c3)sc2C)cc1" = ?
79.8

Notebook entry, Perkinsus marinus PRA240 assay: ATP content of "CCCCc1c(CCC)c(=N)c2ccccc2n1C" = ?
95.4

Notebook entry, Perkinsus marinus PRA240 assay: ATP content of "COc1ccc(C(=O)Nc2ccc3nc(N4CCCCC4)cc(C)c3c2)cc1OC" = ?
101

Notebook entry, Perkinsus marinus PRA240 assay: ATP content of "Cc1ccc(Cl)cc1N1CCN(CCCNC(=O)C2CCN(c3nc4ccccc4[nH]3)CC2)CC1" = ?
87.1

Notebook entry, Perkinsus marinus PRA240 assay: ATP content of COc1ccc(C(O)(CCC(C)C)C(CN2CCOCC2)c2ccc(Cl)cc2)cc1 (configuration not stated) = ?
91.9

Notebook entry, Perkinsus marinus PRA240 assay: ATP content of "COc1ccc(-c2cc3c(nn2)-c2ccccc2C3=O)cc1" = ?
32.7

Notebook entry, Perkinsus marinus PRA240 assay: ATP content of "Cc1ccc(Cn2c(N3CCC(C(=O)NCc4cccs4)CC3)nc3ccccc32)cc1" = ?
106

Notebook entry, Perkinsus marinus PRA240 assay: ATP content of "CCN(CC)S(=O)(=O)c1ccc(-c2csc(Nc3ccc(C)c(C)c3)n2)cc1" = ?
142

* * *

- Tested on: Perkinsus marinus PRA240
- assay_method_text: ATP content (proliferation) relative to DMSO control; higher = more parasite growth (less inhibition)
- measurement_setup: 20 µM; 4 days
In this section we review reported ATP content values for a set of compounds.

The cases that follow already have their ATP content on record.
| compound | tgt | ATP content |
| --- | --- | --- |
| Cc1cc(NC(=O)c2cccc(C(F)(F)F)c2)n(-c2nc(-c3ccc4c(c3)OCO4)cs2)n1 | Perkinsus marinus PRA240 | 144% |
| COc1ccc(N2CCN(C(CNC(=O)C3CCCCC3)c3ccc4c(c3)OCO4)CC2)cc1 (centres undefined) | Perkinsus marinus PRA240 | 114% |
| COc1ccccc1C(=O)ON=C(N)Cc1cccc2ccccc12 | Perkinsus marinus PRA240 | 148% |
| O=c1cc(NC2CCN(CCCc3ccccc3)CC2)c2cc(Cl)ccc2o1 | Perkinsus marinus PRA240 | 167% |

Entry under review: "COc1ccc(Nc2nc(NCc3ccccc3)c3ccccc3n2)cc1" . Reported ATP content?
103%

Entry under review: "Cc1cc(N(C)C)nc(Nc2ccc(NC(=O)Nc3ccccc3)cc2)n1" . Reported ATP content?
85.9%

Entry under review: "COc1cc(C(=O)ON=C(N)Cc2cccc3ccccc23)cc(OC)c1OC" . Reported ATP content?
87.4%

Entry under review: CCc1ccc(CNCC(O)c2ccccc2)cc1 (centres undefined) . Reported ATP content?
60.8%

Entry under review: "CN(C)c1ccc(-c2nc3cc(N)ccc3[nH]2)cc1" . Reported ATP content?
0.856%

Entry under review: "CC(C)(C)c1ccc(C(=O)Nc2nc3ccccc3s2)cc1" . Reported ATP content?
57%
